molecular target: human LPA1 receptor (Homo sapiens); construct: TEV protease site; Gal4-VP16 transcription factor; experiment: Beta-arrestin recruitment assay to determine IC50 values for human LPAR1; conditions: Tango EDG2-bla U2OS cells, antagonist assay, LPA 18:1 500 nM final
Sequence (Q92633 whole entry, the tested form may be a part): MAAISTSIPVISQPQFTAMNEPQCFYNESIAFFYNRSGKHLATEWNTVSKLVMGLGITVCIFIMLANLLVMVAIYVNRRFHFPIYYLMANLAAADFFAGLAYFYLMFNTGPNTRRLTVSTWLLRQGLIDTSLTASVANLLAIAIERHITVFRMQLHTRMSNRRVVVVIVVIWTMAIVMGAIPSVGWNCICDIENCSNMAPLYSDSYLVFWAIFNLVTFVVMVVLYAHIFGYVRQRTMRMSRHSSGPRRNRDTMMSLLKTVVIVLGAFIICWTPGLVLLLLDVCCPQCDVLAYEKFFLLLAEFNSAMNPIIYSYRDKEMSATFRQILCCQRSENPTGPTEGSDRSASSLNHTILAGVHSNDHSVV
This section presents molecules with their documented IC50 values.
Please respond with the number in nM and leave the unit unwritten.

COCCNS(=O)(=O)N1CC(C(=O)Nc2cnc(Cl)cc2OC)(c2ccccc2C(C)C)C1 :: 73
COc1cc(Cl)ncc1NC(=O)C1(c2ccccc2C(C)C)CCN(c2nc(C)ncc2F)CC1 :: 5
COc1cc(Cl)ncc1NC(=O)C1(c2ccccc2C(C)C)CN(CCNS(N)(=O)=O)C1 :: 17
COc1cc(Cl)ncc1NC(=O)C1(c2ccccc2C(C)C)CN(S(N)(=O)=O)C1 :: 3
COc1cc(Cl)ncc1NC(=O)C1(c2ccccc2C(C)C)CN(C(=O)Cn2cc(CO)nn2)C1 :: 52

Q: Kindly state the measured IC50 obtained for COc1cc(Cl)ncc1NC(=O)C1(c2ccccc2C(C)C)CN(C(N)=O)C1 with human LPA1 receptor (Homo sapiens).
Result: 22

---

target: human LPA1 receptor (Homo sapiens); construct: TEV protease site; Gal4-VP16 transcription factor; assay: Beta-arrestin recruitment assay to determine IC50 values for human LPAR1; details: Tango EDG2-bla U2OS cells, antagonist assay, LPA 18:1 500 nM final
pIC50: −log10 of the molar value.
The label depends only on pIC50: 1 if it is at least 7, -1 if it is smaller.

Examples with answers:
COc1cc(Cl)ncc1NC(=O)C1(c2ccccc2C(C)C)CN(C(=O)NCCC(=O)O)C1 :: -1
COCCOc1cc(Cl)ncc1NC(=O)C1(c2ccccc2C(C)C)CN(S(N)(=O)=O)C1 :: 1
COc1cc(Cl)ncc1NC(=O)C1(c2ccccc2C(C)C)CN(c2c(O)c(=O)c2=O)C1 :: 1

Could you now consider this next molecule?
Q: Form field: pIC50 at least 7? Entry: COc1cc(C)ncc1NC(=O)C1(c2ccccc2C(C)C)CN(S(N)(=O)=O)C1
Result: 1

---

target: human LPA1 receptor (Homo sapiens); construct: TEV protease site; Gal4-VP16 transcription factor; assay: Beta-arrestin recruitment assay to determine IC50 values for human LPAR1; settings: Tango EDG2-bla U2OS cells, antagonist assay, LPA 18:1 500 nM final
Label scheme, based on IC50: low: < 20 nM; intermediate: ≥ 20 nM and < 30 nM; high: ≥ 30 nM

Look over these answered cases.
COC[C@H](C)Oc1cc(Cl)ncc1NC(=O)C1(c2ccccc2C(C)C)CN(S(N)(=O)=O)C1 [Example 21-7] :: low
COc1cc(Cl)ncc1NC(=O)C1(c2ccccc2C(C)C)CN(C(=O)N2CCOCC2)C1 [Example 22-16] :: high
COc1cc(F)ncc1NC(=O)C1(c2ccccc2C(C)C)CN(S(N)(=O)=O)C1 [Example 21-1] :: low
COc1cc(Cl)ncc1NC(=O)C1(c2ccccc2C(C)C)CN(C[C@@H]2COC(C)(C)O2)C1 [Example 18-11] :: high
COc1cc(Cl)ncc1NC(=O)C1(c2ccccc2C(C)C)CN(c2cnc(C(=O)O)cn2)C1 [Example 24-20] :: high

Moving on to the next molecule.
Q: Place this molecule in its band: CNC(=O)N1CC(C(=O)Nc2cnc(Cl)cc2OC)(c2ccccc2C(C)C)C1 [Example 22-2]
Result: low

Where do the numbers come from? From patent US12479820B2.
